This collection of values is drawn from PubChem BioAssay AID1919010.

Please respond with reported viability, T/C for every item in the list.
Tested on: Hs578T complex spheroid growth, percent test/control
experiment-description: Anticancer human tumor Hs578T cell line growth inhibition [AhR]
conditions-used: second compound 10 µM; first compound 3.16 µM; stronger effect = lower value
From the text: Multicellular complex tumor spheroid response to aryl hydrocarbon receptor antagonists in combination with a variety of drugs and investigational agents in selected tumor cell lines […] Compounds. […] If the clinical Cmax for an agent had not been determined, the highest concentration tested was 10 microM (Table 1). […]
Give bare numbers, in %.

Here are 2 compounds. What values of viability, T/C were reported for them?
1. O=C(C=Cc1cccc(S(=O)(=O)Nc2ccccc2)c1)NO + Cc1ccccc1N=Nc1ccc(NC(=O)c2ccnn2C)c(C)c1
2. CC1COCCN1c1cc(C2(S(C)(=N)=O)CC2)nc(-c2ccnc3[nH]ccc23)n1 (stereo not given) + CC(CO)NC(=O)c1cc(-c2ccc(Cl)cc2)nn(-c2cnn(C)c2)c1=O

Solution:
[25.9, 90.9]

For the 3 compounds below, give their viability, T/C values.
1. CC(C)c1c(-c2ccccc2)nc2c(C#N)c[nH]n2c1=O + Cc1cncc(-c2nc(NCCc3c[nH]c4ccccc34)c3ncn(C(C)C)c3n2)c1
2. CC1(C)CCC(CN2CCN(c3ccc(C(=O)NS(=O)(=O)c4ccc(NCC5CCOCC5)c([N+](=O)[O-])c4)c(Oc4cnc5[nH]ccc5c4)c3)CC2)=C(c2ccc(Cl)cc2)C1 + Cc1ccccc1N=Nc1ccc(NC(=O)c2ccnn2C)c(C)c1
3. Nc1ccccc1NC(=O)c1ccc(CNC(=O)OCc2cccnc2)cc1 + Cc1ccccc1N=Nc1ccc(NC(=O)c2ccnn2C)c(C)c1

Solution:
[5.51, 67.2, 19.6]

Working through the 4 compounds below one at a time, give viability, T/C for each.
1. COc1cc(Nc2ncc3c(n2)-c2ccc(Cl)cc2C(c2c(F)cccc2OC)=NC3)ccc1C(=O)O + Cc1cncc(-c2nc(NCCc3c[nH]c4ccccc34)c3ncn(C(C)C)c3n2)c1
2. NS(=O)(=O)OCC1CC(n2ccc3c(NC4CCc5ccccc54)ncnc32)CC1O (stereo not given) + Cc1cncc(-c2nc(NCCc3c[nH]c4ccccc34)c3ncn(C(C)C)c3n2)c1
3. NS(=O)(=O)OCC1CC(n2ccc3c(NC4CCc5ccccc54)ncnc32)CC1O (stereo not given) + CC(CO)NC(=O)c1cc(-c2ccc(Cl)cc2)nn(-c2cnn(C)c2)c1=O
4. COc1cc(C2c3cc4c(cc3C(OC3OC5COC(C)OC5C(O)C3O)C3COC(=O)C23)OCO4)cc(OC)c1O (stereo not given) + CC(CO)NC(=O)c1cc(-c2ccc(Cl)cc2)nn(-c2cnn(C)c2)c1=O

Solution:
[8.49, 5.06, 44.1, 83.4]

###

Test system: Hs578T complex spheroid growth, percent test/control
experiment-description: Anticancer human tumor Hs578T cell line growth inhibition [AhR];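 further: luminescent viability signal as a proxy for spheroid growth; spheroids exposed to agents for one week after three days of growth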
conditions-used: second compound 0.316 µM; first compound 0.0316 µM; stronger effect = lower value
recorded-metric: viability, T/C (%)
One number for each entry, in %.

INSERT INTO measurements (compound, quantity_unit, result_number) VALUES
  ('CC(C)c1c(-c2ccccc2)nc2c(C#N)c[nH]n2c1=O + CC(CO)NC(=O)c1cc(-c2ccc(Cl)cc2)nn(-c2cnn(C)c2)c1=O', '%', 113);

Please report viability, T/C for every entry that follows.
1. O=C(C=Cc1cccc(S(=O)(=O)Nc2ccccc2)c1)NO + Cc1cncc(-c2nc(NCCc3c[nH]c4ccccc34)c3ncn(C(C)C)c3n2)c1
2. O=C(C=Cc1cccc(S(=O)(=O)Nc2ccccc2)c1)NO + CC(CO)NC(=O)c1cc(-c2ccc(Cl)cc2)nn(-c2cnn(C)c2)c1=O
3. CC1COCCN1c1cc(C2(S(C)(=N)=O)CC2)nc(-c2ccnc3[nH]ccc23)n1 (stereo unspecified) + CC(CO)NC(=O)c1cc(-c2ccc(Cl)cc2)nn(-c2cnn(C)c2)c1=O
4. COc1ccc([C@@H](O)c2cc(-c3ncnc4cc(N5CCOCC5)ccc34)c(F)cc2Cl)nn1 + Cc1ccccc1N=Nc1ccc(NC(=O)c2ccnn2C)c(C)c1
5. Nc1ncn(C2CC(O)C(CO)O2)c(=O)n1 (stereo unspecified) + Cc1ccccc1N=Nc1ccc(NC(=O)c2ccnn2C)c(C)c1

Solution:
[103, 115, 113, 116, 96.8]

###

System: Hs578T complex spheroid growth, percent test/control
experiment-description: Anticancer human tumor Hs578T cell line growth inhibition [AhR];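 further: luminescent viability signal as a proxy for spheroid growth; spheroids exposed to agents for one week after three days of growth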
conditions-used: second compound 10 µM; first compound 0.003 µM; stronger effect = lower value
recorded-metric: viability, T/C (%)
Answers are plain numbers, in %.

Batch of 6 molecules: report viability, T/C for each.
1. CCc1c2c(nc3ccc(O)cc13)-c1cc3c(c(=O)n1C2)COC(=O)[C@]3(O)CC + Cc1ccccc1N=Nc1ccc(NC(=O)c2ccnn2C)c(C)c1
2. CC(C)CC(NC(=O)C(Cc1ccccc1)NC(=O)c1cnccn1)B(O)O (stereo unspecified) + Cc1ccccc1N=Nc1ccc(NC(=O)c2ccnn2C)c(C)c1
3. Nc1ncn(C2CC(O)C(CO)S2)c(=O)n1 (stereo unspecified) + Cc1ccccc1N=Nc1ccc(NC(=O)c2ccnn2C)c(C)c1
4. CC(C)CC(NC(=O)C(Cc1ccccc1)NC(=O)c1cnccn1)B(O)O (stereo unspecified) + CC(CO)NC(=O)c1cc(-c2ccc(Cl)cc2)nn(-c2cnn(C)c2)c1=O
5. CCc1c2c(nc3ccc(O)cc13)-c1cc3c(c(=O)n1C2)COC(=O)[C@]3(O)CC + Cc1cncc(-c2nc(NCCc3c[nH]c4ccccc34)c3ncn(C(C)C)c3n2)c1
6. CC(C)CC(NC(=O)C(Cc1ccccc1)NC(=O)c1cnccn1)B(O)O (stereo unspecified) + Cc1cncc(-c2nc(NCCc3c[nH]c4ccccc34)c3ncn(C(C)C)c3n2)c1

Solution:
51.1
51.2
67
59.8
3.51
6.44

###

Test system: Hs578T complex spheroid growth, percent test/control
experiment-description: Anticancer human tumor Hs578T cell line growth inhibition [AhR];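 further: luminescent viability signal as a proxy for spheroid growth; spheroids exposed to agents for one week after three days of growth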
conditions-used: curve of first compound; second compound 3.16 µM
Can you tell me IC50 for the items I'm about to list?
One number for each entry, in µM.

INSERT INTO results (compound, target_under_test, quantity_unit, result_number) VALUES
  ('COc1ccc([C@@H](O)c2cc(-c3ncnc4cc(N5CCOCC5)ccc34)c(F)cc2Cl)nn1 + Cc1ccccc1N=Nc1ccc(NC(=O)c2ccnn2C)c(C)c1', 'Hs578T complex spheroid growth, percent test/control', 'µM', 2.87),
  ('COc1ccc([C@@H](O)c2cc(-c3ncnc4cc(N5CCOCC5)ccc34)c(F)cc2Cl)nn1 + CC(CO)NC(=O)c1cc(-c2ccc(Cl)cc2)nn(-c2cnn(C)c2)c1=O', 'Hs578T complex spheroid growth, percent test/control', 'µM', 4.18),
  ('COc1cccc2c1C(=O)c1c(O)c3c(c(O)c1C2=O)CC(O)(C(=O)CO)CC3OC1CC(N)C(O)C(C)O1 (stereo unspecified) + Cc1cncc(-c2nc(NCCc3c[nH]c4ccccc34)c3ncn(C(C)C)c3n2)c1', 'Hs578T complex spheroid growth, percent test/control', 'µM', 0.315),
  ('CCc1c2c(nc3ccc(O)cc13)-c1cc3c(c(=O)n1C2)COC(=O)[C@]3(O)CC + CC(CO)NC(=O)c1cc(-c2ccc(Cl)cc2)nn(-c2cnn(C)c2)c1=O', 'Hs578T complex spheroid growth, percent test/control', 'µM', 0.193);

Now, please, on to the next compound.
Exercise: Could you share which IC50 value was measured for O=C(C=Cn1cnc(-c2cc(C(F)(F)F)cc(C(F)(F)F)c2)n1)NNc1cnccn1 + Cc1cncc(-c2nc(NCCc3c[nH]c4ccccc34)c3ncn(C(C)C)c3n2)c1 ?
Solution: 0.148

###

Tested on: Hs578T complex spheroid growth, percent test/control
experiment-description: Anticancer human tumor Hs578T cell line growth inhibition [AhR];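 further: luminescent viability signal as a proxy for spheroid growth; spheroids exposed to agents for one week after three days of growth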
conditions-used: second compound 10 µM; first compound 3.16 µM; stronger effect = lower value
# fulfilled = viability, T/C below 60% (exclusive); not fulfilled = viability, T/C at/above 60%

Use these answered entries as a reference point.
INSERT INTO measurements (compound, category_label) VALUES
  ('CC1(C)CCC(CN2CCN(c3ccc(C(=O)NS(=O)(=O)c4ccc(NCC5CCOCC5)c([N+](=O)[O-])c4)c(Oc4cnc5[nH]ccc5c4)c3)CC2)=C(c2ccc(Cl)cc2)C1 + Cc1cncc(-c2nc(NCCc3c[nH]c4ccccc34)c3ncn(C(C)C)c3n2)c1', 'fulfilled'),
  ('CC1(C)CCC(CN2CCN(c3ccc(C(=O)NS(=O)(=O)c4ccc(NCC5CCOCC5)c([N+](=O)[O-])c4)c(Oc4cnc5[nH]ccc5c4)c3)CC2)=C(c2ccc(Cl)cc2)C1 + CC(CO)NC(=O)c1cc(-c2ccc(Cl)cc2)nn(-c2cnn(C)c2)c1=O', 'not fulfilled'),
  ('COc1cc(Nc2ncc3c(n2)-c2ccc(Cl)cc2C(c2c(F)cccc2OC)=NC3)ccc1C(=O)O + Cc1ccccc1N=Nc1ccc(NC(=O)c2ccnn2C)c(C)c1', 'not fulfilled'),
  ('Nc1ccccc1NC(=O)c1ccc(CNC(=O)OCc2cccnc2)cc1 + Cc1cncc(-c2nc(NCCc3c[nH]c4ccccc34)c3ncn(C(C)C)c3n2)c1', 'fulfilled');

Let us examine a further case.
Exercise: viability, T/C under 60%? Item: COc1ccc([C@@H](O)c2cc(-c3ncnc4cc(N5CCOCC5)ccc34)c(F)cc2Cl)nn1 + CC(CO)NC(=O)c1cc(-c2ccc(Cl)cc2)nn(-c2cnn(C)c2)c1=O
Solution: fulfilled
